study_system: human sodium channels Nav 1.8 (Homo sapiens, UniProt Q9Y5Y9)
Sequence (Q9Y5Y9 whole entry): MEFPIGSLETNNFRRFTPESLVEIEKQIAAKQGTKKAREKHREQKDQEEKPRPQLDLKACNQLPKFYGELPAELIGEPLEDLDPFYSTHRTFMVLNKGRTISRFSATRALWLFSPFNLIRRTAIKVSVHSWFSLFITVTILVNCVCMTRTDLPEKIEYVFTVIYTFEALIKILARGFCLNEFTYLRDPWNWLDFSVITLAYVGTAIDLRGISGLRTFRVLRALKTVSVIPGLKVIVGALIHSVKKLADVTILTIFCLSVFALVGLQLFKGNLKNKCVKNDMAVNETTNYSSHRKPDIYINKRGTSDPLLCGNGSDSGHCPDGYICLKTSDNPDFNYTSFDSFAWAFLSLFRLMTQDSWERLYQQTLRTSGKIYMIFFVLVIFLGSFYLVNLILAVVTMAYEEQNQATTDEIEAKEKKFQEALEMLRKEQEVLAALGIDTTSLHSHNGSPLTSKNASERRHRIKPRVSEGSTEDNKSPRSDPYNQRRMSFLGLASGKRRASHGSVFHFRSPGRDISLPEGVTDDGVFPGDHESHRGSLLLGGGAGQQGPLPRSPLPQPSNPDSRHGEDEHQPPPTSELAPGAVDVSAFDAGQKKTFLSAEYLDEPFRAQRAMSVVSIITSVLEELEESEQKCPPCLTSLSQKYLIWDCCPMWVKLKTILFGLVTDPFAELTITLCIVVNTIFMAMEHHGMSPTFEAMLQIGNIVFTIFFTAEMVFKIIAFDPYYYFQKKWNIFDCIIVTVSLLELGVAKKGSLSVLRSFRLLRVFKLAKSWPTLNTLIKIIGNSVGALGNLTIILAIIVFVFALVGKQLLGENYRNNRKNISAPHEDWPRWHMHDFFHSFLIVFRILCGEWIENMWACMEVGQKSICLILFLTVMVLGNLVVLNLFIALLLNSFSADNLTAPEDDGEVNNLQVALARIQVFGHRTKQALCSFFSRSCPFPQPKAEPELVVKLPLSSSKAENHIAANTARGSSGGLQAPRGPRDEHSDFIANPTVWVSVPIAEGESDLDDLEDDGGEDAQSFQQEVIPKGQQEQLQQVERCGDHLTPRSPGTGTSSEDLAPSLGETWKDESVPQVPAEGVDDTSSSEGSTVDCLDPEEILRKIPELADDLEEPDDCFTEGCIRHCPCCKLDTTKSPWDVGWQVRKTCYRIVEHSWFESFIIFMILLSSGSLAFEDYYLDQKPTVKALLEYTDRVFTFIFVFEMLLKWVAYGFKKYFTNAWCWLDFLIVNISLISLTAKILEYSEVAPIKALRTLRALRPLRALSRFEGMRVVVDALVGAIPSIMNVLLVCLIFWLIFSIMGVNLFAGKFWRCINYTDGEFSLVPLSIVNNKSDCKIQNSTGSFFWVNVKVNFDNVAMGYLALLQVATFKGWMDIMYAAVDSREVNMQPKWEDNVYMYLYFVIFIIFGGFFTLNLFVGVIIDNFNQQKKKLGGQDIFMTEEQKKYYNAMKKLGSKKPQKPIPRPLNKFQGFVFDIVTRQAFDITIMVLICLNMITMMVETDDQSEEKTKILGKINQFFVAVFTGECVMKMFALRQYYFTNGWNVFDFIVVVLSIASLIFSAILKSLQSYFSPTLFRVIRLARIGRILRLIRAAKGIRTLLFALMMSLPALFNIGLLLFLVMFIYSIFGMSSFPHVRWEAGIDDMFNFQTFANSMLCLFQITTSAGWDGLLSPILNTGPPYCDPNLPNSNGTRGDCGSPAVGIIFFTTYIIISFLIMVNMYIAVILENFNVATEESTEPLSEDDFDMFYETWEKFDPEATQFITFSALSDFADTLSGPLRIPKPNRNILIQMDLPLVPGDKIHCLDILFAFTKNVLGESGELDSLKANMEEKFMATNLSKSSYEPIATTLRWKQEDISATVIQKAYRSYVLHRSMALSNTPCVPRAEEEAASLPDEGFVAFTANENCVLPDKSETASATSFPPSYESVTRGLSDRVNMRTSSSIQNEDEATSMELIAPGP
assay_overview: Automated whole-cell voltage-clamp (ScreenPatch 384P) sodium current block, Nav 1.8
condition_context: CHO cells stably expressing human Nav 1.8; inactivation step -40 mV for 8 seconds, test step 10 mV (TP1A); exposure at least five minutes; room temperature; mean if two or more assays; read-out: Nav1.8 IC50
pIC50: −log10 of the molar value.
value_kind: pIC50

Example entries and their recorded answers appear below.
> print(dat)
                                   molecule  meas.value
1  [2H]C([2H])([2H])Oc1ccc(F)c(CONC(=O)c2cncc(-c3ccc(OCC)nc3)n2)c1      > 6.30
2  CCOc1ccc(-c2cncc(C(=O)NOCc3[nH]ccc3C#N)n2)cn1      < 6.00
3  CCOc1ccc(-c2cncc(C(=O)NOCc3cccc(O)c3)n2)cn1      > 6.30
4  CCOc1ccc(-c2cncc(C(=O)NOCc3cc(OC)ccc3O)n2)cc1      < 6.00
5  CCOc1ccc(-c2cncc(C(=O)NOCc3cc(OC)ccc3F)n2)c(C)n1      > 6.30
6  COc1ccc(F)c(CONC(=O)c2cncc(-c3ccc(OCC4CN(C)C4)cc3)n2)c1      > 6.30
7  CCOc1ccc(-c2cncc(C(=O)NOCc3cc(N(C)C)cnc3F)n2)cn1 [Compound 42]      > 6.30

Please examine the following record next.
QUERY: Quick check: pIC50 of COc1ccc(F)c(CONC(=O)c2cncc(-c3ccc([S+](C)[O-])nc3)n2)c1 (centres unmarked) ?
RESULT: > 6.30

###

study_system: human sodium channels Nav 1.8 (Homo sapiens)
assay_overview: Automated whole-cell voltage-clamp (ScreenPatch 384P) sodium current block, Nav 1.8
condition_context: CHO cells stably expressing human Nav 1.8; inactivation step -40 mV for 8 seconds, test step 10 mV (TP1A); exposure at least five minutes; room temperature; mean if two or more assays; read-out: Nav1.8 IC50
Attribute: IC50

Example entries and their recorded answers appear below.
> print(dat)
                                    compound  value.kind   meas.value
 1  CCOc1ccc(-c2cncc(C(=O)NOCc3cccc(O)c3)n2)cc1 [Compound 7]        IC50       > 1 µM
 2  [2H]C([2H])([2H])COc1ccc(-c2cncc(C(=O)NOCc3cc(OC)ccc3F)n2)cn1 [Compound 49]        IC50       > 1 µM
 3  COc1ccc(F)c(CONC(=O)c2nccc(-c3ccc(OC(F)F)nc3)n2)c1 [Compound 119]        IC50     < 0.5 µM
 4  [2H]C([2H])([2H])C([2H])([2H])Oc1ccc(-c2cncc(C(=O)NOCc3cc(OC)ccc3F)n2)cn1 [Compound 48]        IC50       > 1 µM
 5  [2H]C([2H])([2H])COc1ccc(-c2cncc(C(=O)NOCc3cc(OC([2H])([2H])[2H])ccc3F)n2)cn1 [Compound 52]        IC50       > 1 µM
 6  COc1cc(CONC(=O)c2cncc(-c3ccc(OC(F)F)nc3)n2)c(F)cn1 [Compound 79]        IC50       > 1 µM
 7  COc1ccc(F)c(CONC(=O)c2cncc(-c3ccc(OC)nc3)n2)c1 [Compound 30]        IC50     < 0.5 µM
 8  COc1ccc(F)c(CONC(=O)c2cncc(-c3ccc(OC(C)C)cc3)n2)c1 [Compound 3]        IC50     < 0.5 µM
 9  COc1ccc(F)c(CONC(=O)c2cncc(-c3ccc(OC(C)C)nc3)n2)c1 [Compound 31]        IC50  0.5 to 1 µM
10  CCOc1ccc(-c2cncc(C(=O)NOCc3cc(OC)ccc3C)n2)cc1 [Compound 19]        IC50       > 1 µM

QUERY: Quick check: IC50 of O=C(NOCc1cccnc1)c1cncc(-c2ccc(OC(F)(F)F)nc2)n1 [Compound 74] ?
RESULT: < 0.5 µM

QUERY: // next record COc1cnc(F)c(CONC(=O)c2cccc(-c3ccc(OC(F)F)nc3)n2)c1 [Compound 114]
RESULT: 0.5 to 1 µM

QUERY: // next record COc1ccc(F)c(CONC(=O)c2ccnc(-c3ccc(OC(F)F)nc3)n2)c1 [Compound 118]
RESULT: < 0.5 µM

QUERY: // next record CCOc1ccc(-c2cncc(C(=O)NOCc3cc(OC)cnc3F)n2)cc1 [Compound 12]
RESULT: < 0.5 µM

QUERY: // next record CCOc1ccc(-c2cncc(C(=O)NOCc3ccnn3C)n2)cn1 [Compound 58]
RESULT: > 1 µM

QUERY: // next record CCOc1ccc(-c2cncc(C(=O)NOCc3cc(OC)cnc3C)n2)cc1 [Compound 18]
RESULT: < 0.5 µM

QUERY: // next record CCOc1ccc(-c2cncc(C(=O)NOCc3cc(N(C)C)ccc3F)n2)cn1 [Compound 40]
RESULT: < 0.5 µM

Data origin: patent EP4660184A1
